Could you please report measured Kd for the items listed next?
Biological target: HLA-B*35:01
Test: IEDB peptide-MHC binding, purified MHC/competitive/radioactivity; filed as Kd, often an IC50 or EC50 that approximates it; bounds were set here for any values at or beyond the usual limits of such assays
Details: source organism: Dengue virus 2 Jamaica/1409/1983
One number for each entry, in nM.

Check out these entries, answers already filled in.
INSERT INTO assay_data (item_sequence, measured_on, value_units, test_value) VALUES
  ('TPEGIIPSM', 'HLA-B*35:01', 'nM', 7.57),
  ('FPQSNAPIM', 'HLA-B*35:01', 'nM', 13600);

Supply Kd value. Item: VPLLAIGCY 168

* * *

Target: HLA-A*24:03
Assay: IEDB peptide-MHC binding, purified MHC/direct/fluorescence; filed as Kd, often an IC50 or EC50 that approximates it; bounds were set here for any values at or beyond the usual limits of such assays
Conditions: source organism: Salmonella enterica subsp. enterica serovar Typhimurium
measurement-name: Kd

Give me measured Kd, please, for this sequence: NSDYMMWVG ≥ 20 µM

* * *

Biological target: HLA-A*02:12
Experiment: IEDB peptide-MHC binding, purified MHC/competitive/fluorescence; filed as Kd, often an IC50 or EC50 that approximates it; bounds were set here for any values at or beyond the usual limits of such assays
Conditions: source organism: Vibrio cholerae
measurement-name: pKd
Numbers only, as −log10 of the molar value.

Using the record for NLNFDQAAL , state its measured pKd. 7.08

* * *

Biological target: HLA-A*03:01
Experiment: IEDB peptide-MHC binding, purified MHC/direct/fluorescence; filed as Kd, often an IC50 or EC50 that approximates it; bounds were set here for any values at or beyond the usual limits of such assays
Conditions: source organism: Vibrio cholerae
pKd: −log10 of the molar value.
Exercise: for every item that follows, state its recorded pKd.

INSERT INTO results (item_sequence, measurement_name, test_value) VALUES
  ('AYYWNQNGF', 'pKd', '≤ 4.70');

Give the reported pKd for this sequence. TTILGLLPM ≤ 4.70

* * *

Target: HLA-A*31:01
Experiment: IEDB peptide-MHC binding, purified MHC/competitive/fluorescence; filed as Kd, often an IC50 or EC50 that approximates it; bounds were set here for any values at or beyond the usual limits of such assays
Conditions: source organism: Influenza A virus (A/swine/Italy/1509-6/97(H1N1))
measurement-name: Kd (nM)
Numbers only, in nM.

GET Kd | system: HLA-A*31:01 | item: LMQGSTLPR 30.2

* * *

Biological target: HLA-A*26:03
Assay: IEDB peptide-MHC binding, purified MHC/direct/fluorescence; filed as Kd, often an IC50 or EC50 that approximates it; bounds were set here for any values at or beyond the usual limits of such assays
Conditions: source organism: Giardia lamblia ATCC 50803
pKd: −log10 of the molar value.
measurement-name: pKd

Send back HLA-A*26:03 pKd of EIRHRSGIQ only. ≤ 4.70

* * *

Target: HLA-B*45:01
Test: IEDB peptide-MHC binding, purified MHC/competitive/radioactivity; filed as Kd, often an IC50 or EC50 that approximates it; bounds were set here for any values at or beyond the usual limits of such assays
Conditions: source organism: Lymphocytic choriomeningitis virus (strain Armstrong)
Assign Kd to each entry below.

INSERT INTO measurements (item_sequence, test_value) VALUES
  ('NDLQFGFGW', '≥ 77.7 µM');

--- query ---
Provide one value: measured Kd of ADSDDILTL ≥ 77.7 µM
